This collection of values is drawn from PubChem BioAssay AID1963852.

- Test system: 282377-053-R-J1-PDC complex spheroid viability
- method.summary: Anticancer human tumor 282377-053-R-J1-PDC patient-derived colon adenocarcinoma cell line growth inhibition [POLQ]
- condition.context: second compound 10 µM; first compound 0.0316 µM; stronger effect = lower value
Provide the reported viability, T/C of each item.
Answers are plain numbers, in %.

// below: answered compounds
| compound | experimental.target | unit.abbreviation | viability, T/C |
| --- | --- | --- | --- |
| CC1COCCN1c1cc(-c2ccnn2C)c2ccnc(-c3ccn[nH]3)c2n1 (stereo not given) + Nc1ccc(C#CCN(C(=O)Cc2ncc(C(F)(F)F)cc2C(F)(F)F)c2ccc(F)cc2)nn1 | 282377-053-R-J1-PDC complex spheroid viability | % | 103 |
| CC[C@@]1(O)C(=O)OCc2c1cc1n(c2=O)Cc2cc3c(CN(C)C)c(O)ccc3nc2-1 + Cc1cccc(N(C)C(=O)C2C(O)CCN2c2nc(C)cc(C(F)(F)F)c2C#N)c1 | 282377-053-R-J1-PDC complex spheroid viability | % | 96.2 |
| Nc1ccn(C2OC(CO)C(O)C2(F)F)c(=O)n1 (stereo not given) + Cc1cccc(N(C)C(=O)C2C(O)CCN2c2nc(C)cc(C(F)(F)F)c2C#N)c1 | 282377-053-R-J1-PDC complex spheroid viability | % | 74.9 |
| O=C(c1cc(Cc2n[nH]c(=O)c3ccccc23)ccc1F)N1CCN(C(=O)C2CC2)CC1 + COC1C(OC(N)=O)C(O)C(Oc2ccc3c(O)c(NC(=O)c4ccc(O)c(CC=C(C)C)c4)c(=O)oc3c2C)OC1(C)C | 282377-053-R-J1-PDC complex spheroid viability | % | 94 |

Task: Please indicate viability, T/C recorded for CCCS(=O)(=O)Nc1ccc(F)c(C(=O)c2c[nH]c3ncc(-c4ccc(Cl)cc4)cc23)c1F + Nc1ccc(C#CCN(C(=O)Cc2ncc(C(F)(F)F)cc2C(F)(F)F)c2ccc(F)cc2)nn1
Result: 107

###

- Tested on: 282377-053-R-J1-PDC complex spheroid viability
- method.summary: Anticancer human tumor 282377-053-R-J1-PDC cell line growth inhibition [POLQ];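 note: spheroids exposed to compounds for seven days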
- condition.context: curve of first compound; second compound 0.1 µM
Would you mind telling me the reported pIC50 of each entry?
Answers are plain numbers, as −log10 of the molar value.

Use these answered entries as a reference point.
| compound | reported.result |
| --- | --- |
| CC1COCCN1c1cc(C2(O)CC3CCC(C2)O3)c2cnn(-c3ccn[nH]3)c2n1 (centres undefined) + Nc1ccc(C#CCN(C(=O)Cc2ncc(C(F)(F)F)cc2C(F)(F)F)c2ccc(F)cc2)nn1 | 6.23 |
| CCc1c2c(nc3ccc(O)cc13)-c1cc3c(c(=O)n1C2)COC(=O)[C@]3(O)CC + Nc1ccc(C#CCN(C(=O)Cc2ncc(C(F)(F)F)cc2C(F)(F)F)c2ccc(F)cc2)nn1 | 6.02 |
| COc1cccc(OCCCN)c1-c1cc(Nc2cnc(C#N)cn2)n[nH]1 + COC1C(OC(N)=O)C(O)C(Oc2ccc3c(O)c(NC(=O)c4ccc(O)c(CC=C(C)C)c4)c(=O)oc3c2C)OC1(C)C | 7.25 |

Task: // fetch pIC50 given entry CC1COCCN1c1cc(C2(O)CC3CCC(C2)O3)c2cnn(-c3ccn[nH]3)c2n1 (centres undefined) + Cc1cccc(N(C)C(=O)C2C(O)CCN2c2nc(C)cc(C(F)(F)F)c2C#N)c1
Result: 6.52

###

Could you please report measured viability, T/C for the items listed next?
- System: 282377-053-R-J1-PDC complex spheroid viability
- method.summary: Anticancer human tumor 282377-053-R-J1-PDC cell line growth inhibition [POLQ];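 note: spheroids exposed to compounds for seven days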;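 for viability, T/C: 100% = DMSO vehicle control viability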
- condition.context: second compound 0.1 µM; first compound 3.16 µM; stronger effect = lower value
One number for each entry, in %.

| molecule | experimental.target | unit.abbreviation | reported.result |
| --- | --- | --- | --- |
| CC1COCCN1c1cc(-c2ccnn2C)c2ccnc(-c3ccn[nH]3)c2n1 (centres undefined) + COC1C(OC(N)=O)C(O)C(Oc2ccc3c(O)c(NC(=O)c4ccc(O)c(CC=C(C)C)c4)c(=O)oc3c2C)OC1(C)C | 282377-053-R-J1-PDC complex spheroid viability | % | 33.9 |
| COc1ccc([C@@H](O)c2cc(-c3ncnc4cc(N5CCOCC5)ccc34)c(F)cc2Cl)nn1 + Nc1ccc(C#CCN(C(=O)Cc2ncc(C(F)(F)F)cc2C(F)(F)F)c2ccc(F)cc2)nn1 | 282377-053-R-J1-PDC complex spheroid viability | % | 85.5 |
| O=C(Nc1ccc(O)c(NS(=O)(=O)c2ccc(F)cc2)c1)c1ccc(-c2ccccc2)cc1 + Cc1cccc(N(C)C(=O)C2C(O)CCN2c2nc(C)cc(C(F)(F)F)c2C#N)c1 | 282377-053-R-J1-PDC complex spheroid viability | % | 124 |
| CCc1cc2c(N3CCc4c(cc(Cn5ccnc5)cc4-c4cn(C)nc4C(F)(F)F)C3=O)ccnc2c(OC)n1 + Cc1cccc(N(C)C(=O)C2C(O)CCN2c2nc(C)cc(C(F)(F)F)c2C#N)c1 | 282377-053-R-J1-PDC complex spheroid viability | % | 103 |
| CNCc1ccc(-c2[nH]c3cc(F)cc4c3c2CCNC4=O)cc1 + COC1C(OC(N)=O)C(O)C(Oc2ccc3c(O)c(NC(=O)c4ccc(O)c(CC=C(C)C)c4)c(=O)oc3c2C)OC1(C)C | 282377-053-R-J1-PDC complex spheroid viability | % | 122 |
| CC1COCCN1c1cc(C2(O)CC3CCC(C2)O3)c2cnn(-c3ccn[nH]3)c2n1 (centres undefined) + Cc1cccc(N(C)C(=O)C2C(O)CCN2c2nc(C)cc(C(F)(F)F)c2C#N)c1 | 282377-053-R-J1-PDC complex spheroid viability | % | 30.4 |
| CC(C)n1c(=O)n(C)c2cnc3cc(F)c(-c4ccc(OCCCN5CCCCC5)nc4)cc3c21 + Nc1ccc(C#CCN(C(=O)Cc2ncc(C(F)(F)F)cc2C(F)(F)F)c2ccc(F)cc2)nn1 | 282377-053-R-J1-PDC complex spheroid viability | % | 97.2 |
| CCCS(=O)(=O)Nc1ccc(F)c(C(=O)c2c[nH]c3ncc(-c4ccc(Cl)cc4)cc23)c1F + Cc1cccc(N(C)C(=O)C2C(O)CCN2c2nc(C)cc(C(F)(F)F)c2C#N)c1 | 282377-053-R-J1-PDC complex spheroid viability | % | 75.7 |

// switching to the query molecule
Task: Give the reported viability, T/C for this molecule. COc1cc2cc(C(=O)CCC(=O)O)sc2cc1OC + Nc1ccc(C#CCN(C(=O)Cc2ncc(C(F)(F)F)cc2C(F)(F)F)c2ccc(F)cc2)nn1
Result: 94.5

###

- System: 282377-053-R-J1-PDC complex spheroid viability
- method.summary: Anticancer human tumor 282377-053-R-J1-PDC cell line growth inhibition [POLQ];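 note: spheroids exposed to compounds for seven days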;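 for viability, T/C: 100% = DMSO vehicle control viability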
- condition.context: second compound 0.316 µM; first compound 0.1 µM; stronger effect = lower value
For each entry below, report its viability, T/C value.
Answers are plain numbers, in %.

| compound | experimental.target | unit.abbreviation | viability, T/C |
| --- | --- | --- | --- |
| CC(C)n1c(=O)n(C)c2cnc3cc(F)c(-c4ccc(OCCCN5CCCCC5)nc4)cc3c21 + Cc1cccc(N(C)C(=O)C2C(O)CCN2c2nc(C)cc(C(F)(F)F)c2C#N)c1 | 282377-053-R-J1-PDC complex spheroid viability | % | 92.3 |

Parameters: items (list). Returns: viability, T/C for each item.
1. CC[C@@]1(O)C(=O)OCc2c1cc1n(c2=O)Cc2cc3c(CN(C)C)c(O)ccc3nc2-1 + Nc1ccc(C#CCN(C(=O)Cc2ncc(C(F)(F)F)cc2C(F)(F)F)c2ccc(F)cc2)nn1
2. CCCS(=O)(=O)Nc1ccc(F)c(C(=O)c2c[nH]c3ncc(-c4ccc(Cl)cc4)cc23)c1F + Cc1cccc(N(C)C(=O)C2C(O)CCN2c2nc(C)cc(C(F)(F)F)c2C#N)c1
3. O=c1[nH]cc(F)c(=O)[nH]1 + Cc1cccc(N(C)C(=O)C2C(O)CCN2c2nc(C)cc(C(F)(F)F)c2C#N)c1
4. CCc1cc2c(N3CCc4c(cc(Cn5ccnc5)cc4-c4cn(C)nc4C(F)(F)F)C3=O)cc(C)nc2c(OC)n1 + Nc1ccc(C#CCN(C(=O)Cc2ncc(C(F)(F)F)cc2C(F)(F)F)c2ccc(F)cc2)nn1
5. CCc1c2c(nc3ccc(O)cc13)-c1cc3c(c(=O)n1C2)COC(=O)[C@]3(O)CC + COC1C(OC(N)=O)C(O)C(Oc2ccc3c(O)c(NC(=O)c4ccc(O)c(CC=C(C)C)c4)c(=O)oc3c2C)OC1(C)C
6. Nc1ccn(C2OC(CO)C(O)C2(F)F)c(=O)n1 (centres undefined) + Nc1ccc(C#CCN(C(=O)Cc2ncc(C(F)(F)F)cc2C(F)(F)F)c2ccc(F)cc2)nn1
7. COc1cc2cc(C(=O)CCC(=O)O)sc2cc1OC + Nc1ccc(C#CCN(C(=O)Cc2ncc(C(F)(F)F)cc2C(F)(F)F)c2ccc(F)cc2)nn1
8. CC1COCCN1c1cc(-c2ccnn2C)c2ccnc(-c3ccn[nH]3)c2n1 (centres undefined) + Cc1cccc(N(C)C(=O)C2C(O)CCN2c2nc(C)cc(C(F)(F)F)c2C#N)c1

Result:
[101, 85.6, 88.7, 86.2, 51, 98.8, 95.3, 90.2]

Each compound below has a reported value. Please supply its viability, T/C.
1. C#Cc1c(F)ccc2cc(O)cc(-c3ncc4c(N5CC6CCC(C5)N6)nc(OCC56CCCN5CC(F)C6)nc4c3F)c12 (centres undefined) + Nc1ccc(C#CCN(C(=O)Cc2ncc(C(F)(F)F)cc2C(F)(F)F)c2ccc(F)cc2)nn1
2. COc1cccc(OCCCN)c1-c1cc(Nc2cnc(C#N)cn2)n[nH]1 + Nc1ccc(C#CCN(C(=O)Cc2ncc(C(F)(F)F)cc2C(F)(F)F)c2ccc(F)cc2)nn1
3. CCc1c2c(nc3ccc(O)cc13)-c1cc3c(c(=O)n1C2)COC(=O)[C@]3(O)CC + Nc1ccc(C#CCN(C(=O)Cc2ncc(C(F)(F)F)cc2C(F)(F)F)c2ccc(F)cc2)nn1
4. CCc1cc2c(N3CCc4c(cc(Cn5ccnc5)cc4-c4cn(C)nc4C(F)(F)F)C3=O)ccnc2c(OC)n1 + Cc1cccc(N(C)C(=O)C2C(O)CCN2c2nc(C)cc(C(F)(F)F)c2C#N)c1

Result:
1: 106; 2: 58.1; 3: 74.4; 4: 94.9

Task: Given O=C(Nc1ccc(O)c(NS(=O)(=O)c2ccc(F)cc2)c1)c1ccc(-c2ccccc2)cc1 + Cc1cccc(N(C)C(=O)C2C(O)CCN2c2nc(C)cc(C(F)(F)F)c2C#N)c1 , report its viability, T/C on 282377-053-R-J1-PDC complex spheroid viability.
Result: 107
